// data source = the supplement of paper PMC10567573

B1: FBXO34 (parent)
chain: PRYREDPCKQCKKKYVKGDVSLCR

Variants of: B1
EXPERIMENT_DESCRIPTION: protein stability index of a GFP-peptide fusion (GPS, HEK-293T) (PSI 1-6); higher = more stable;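 further: lentivirally expressed fusions sorted by FACS into six bins by GFP to DsRed ratio, PSI derived from sequencing read proportions per bin multiplied by bin number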
DETAILS: c terminus: a fixed tail appended
MEASURED_ATTRIBUTE: protein stability index
Number, no unit, nothing else.

Below, 5 variants whose answers are already recorded.
- SEQUENCE_INPUT: "PRYREDPCKQCKKKYVKGVVSLCR"
  protein stability index: 2.07
- SEQUENCE_INPUT: "PRYREDPCKQCKKVYVKGDVSLCR"
  protein stability index: 2.2
- SEQUENCE_INPUT: "PRYREDPCKQCKKKYVKHDVSLCR"
  protein stability index: 3.23
- SEQUENCE_INPUT: "PRYREDPCKQCKKKYMKGDVSLCR"
  protein stability index: 2.19
- SEQUENCE_INPUT: "PRYREDPCKQCKKKYVTGDVSLCR"
  protein stability index: 2.67

Asked: What does the record list as protein stability index for PRYREDPCKQCKKKYQKGDVSLCR ?
Given back: 2.63

Asked: What does the record list as protein stability index for PRYREDPCKQCKKKYVKIDVSLCR ?
Given back: 2.35

Asked: What does the record list as protein stability index for PRYREDACKQCKKKYVKGDVSLCR ?
Given back: 2.8

Asked: What does the record list as protein stability index for PRYREDPCKQCKKKYVKGDVSNCR ?
Given back: 3.01
